For each entry below, report its Kd value.
Target Or System: GDP-bound KRAS wild-type protein (Homo sapiens)
Test Method Notes: Binding to KRAS by surface plasmon resonance (SPR), dissociation constant KD
Test Parameters: Single Cycle Kinetics
Experimental: Surface plasmon resonance was used to analyze the binding affinity of compounds for KRAS, NRAS, and HRAS. […] The resulting sensorgram was subjected to curve fitting based on a 1:1 binding model on Biacore Insight Evaluation Software or T200 Evaluation Software, and thereby the dissociation constant KD of each compound with respect to KRAS, NRAS, and HRAS was determined. […]
Hi! Could you send only the number? It should be in nM, unit omitted.

Input: Quick one: Kd of CCC[C@H]1C(=O)N[C@@H]([C@@H](C)CC)C(=O)N(C)CC(=O)N(C)[C@H]2C/C=C\CCN(C2=O)[C@@H](Cc2ccc(C(F)(F)F)cc2)C(=O)N(C)CC(=O)N[C@@H](CCc2cc(F)c(C(F)(F)F)c(F)c2)C(=O)N2CC[C@H](OC)[C@H]2C(=O)N(C)C2(CCC2)C(=O)N(C)[C@@H](C2CCCC2)C(=O)N(C)[C@H](C(=O)N(C)C)CC(=O)N1C ?
Output: 0.067

Input: Any idea what Kd was measured for CCC[C@H]1C(=O)N[C@@H]([C@@H](C)CC)C(=O)N2CCCC[C@H]2C(=O)N(C)[C@H]2C/C=C\CCN(C2=O)[C@@H](Cc2ccc(C(F)(F)F)cc2)C(=O)N(C)CC(=O)N[C@@H](CCc2cc(F)c(C(F)(F)F)c(F)c2)C(=O)N2C[C@H](OCC)C[C@H]2C(=O)N(C)C2(CCC2)C(=O)N(C)[C@@H](C2CCCC2)C(=O)N(C)[C@H](C(=O)N(C)C)CC(=O)N1C ?
Output: 0.82

Input: What measured Kd goes with CCCO[C@@H]1C[C@H]2C(=O)NC3(CC(C)(C)C3)C(=O)N(C)[C@@H](C3CCCC3)C(=O)N(C)[C@H](C(=O)N(C)CC)CC(=O)N(C)[C@@H](COCC)C(=O)N[C@@H]([C@@H](C)CC)C(=O)N3C[C@@H](F)C[C@H]3C(=O)N(C)[C@H]3C/C=C\CCN(C3=O)[C@@H](Cc3ccc(C)cc3)C(=O)N(C)CC(=O)N[C@@H](CCc3ccc(C(F)(F)F)c(Cl)c3)C(=O)N2C1 ?
Output: 0.6

###

Tested on: human lung cancer strain NCI-H441
Format: cell-based
Experimental: A test compound was dispensed into a U-bottom 384-well plate as 40 nL serially diluted dimethyl sulfoxide solutions using a liquid handler Echo (LABCYTE). […] This cell suspension was dispensed in an amount of 40 µL per well into a plate containing the test compound, and cultured at 37°C in a 5% carbon dioxide gas incubator. Four days later, 20 µL of CellTiter-Glo (registered trademark) (Promega) was added to each well and […] was measured. […]
Where a SMILES comes first, the peptide text is derived from it. Bridges are numbered along the chain shown (N, C = ends). [ ]: non-standard residue; d: D form. The star is where a group is joined. hPhe(3-Cl-4-CF3) = N[C@@H](CCc1ccc(C(F)(F)F)c(Cl)c1)C(=O)O; NPrPhe(4-CF3) = CCCN[C@@H](Cc1ccc(C(F)(F)F)cc1)C(=O)O; NMeGly(cPent) = CN[C@H](C(=O)O)C1CCCC1; NMeD = CN[C@@H](CC(=O)O)C(=O)O; NMeL = CN[C@@H](CC(C)C)C(=O)O; Morpholide = C1CN(*)CCO1; Aze = O=C(O)[C@@H]1CCN1; Ac4c = NC1(C(=O)O)CCC1; Sar = CNCC(=O)O
Record form. Attribute: IC50. Fill in for each entry.
Lab book: enter the figure in nM, no units written.

Input: Name the reported IC50 value associated with the compound CCCN1C(=O)CN(C)C(=O)[C@@H]2CCN2C(=O)[C@H]([C@@H](C)CC)NC(=O)[C@H](CC(C)C)N(C)C(=O)C[C@@H](C(=O)N2CCOCC2)N(C)C(=O)[C@H](C2CCCC2)N(C)C(=O)C2(CCC2)NC(=O)[C@@H]2CCCN2C(=O)[C@H](CCc2ccc(C(F)(F)F)c(Cl)c2)NC(=O)CN(C)C(=O)[C@@H]1Cc1ccc(C(F)(F)F)cc1 [PP0402] ([NMeL]I[Aze][Sar][NPrPhe(4-CF3)][Sar][hPhe(3-Cl-4-CF3)]P[Ac4c][NMeGly(cPent)][NMeD]-Morpholide; lactam N-11)
Output: 58.1

Input: Report IC50 for CCO[C@@H]1C[C@H]2C(=O)NC3(CC(C)(C)C3)C(=O)N(C)[C@@H](C(CC)CC)C(=O)N(C)[C@H](C(=O)N(C)C)CC(=O)N(C)[C@@H](C(C)C)C(=O)N[C@@H]([C@@H](C)CC)C(=O)N(C)CC(=O)N(C)[C@H]3C/C=C\CCN(C3=O)[C@@H](Cc3ccc(C(F)(F)F)cc3)C(=O)N(C)CC(=O)N[C@@H](CCc3ccc(C(F)(F)F)c(OC)c3)C(=O)N2C1 [PP2165] please.
Output: 17.5

Input: Param item = CC[C@H](C)[C@@H]1NC(=O)[C@H](C)N(C)C(=O)C[C@@H](C(=O)N(C)C)N(C)C(=O)[C@H](C2CCCC2)N(C)C(=O)C2(CCCC2)NC(=O)[C@@H]2CC(F)(F)CN2C(=O)[C@H](CCc2cc(F)c(C(F)(F)F)c(F)c2)NC(=O)CN(C)C(=O)[C@H](Cc2ccc(C(F)(F)F)cc2)N2CCCCC[C@@H](C2=O)N(C)C(=O)CN(C)C1=O [PP0472] ; retrieve measured IC50.
Output: 24.4

###

System: human lung cancer strain NCI-H441
Test Method Notes: NCI-H441 cell proliferation inhibitory activity (CellTiter-Glo, 4 days)
Assay type: cell-based
Test Parameters: NCI-H441 cells, 4 days, read-out: NCl-H441 IC50
Value Type: IC50 (nM)
Return type: number; implicit unit nM.

Input: Lookup: IC50 / human lung cancer strain NCI-H441 / CCC[C@H]1C(=O)N[C@@H]([C@@H](C)CC)C(=O)N(C2CC2)CC(=O)N(C)[C@H]2C/C=C\CCN(C2=O)[C@@H](CC2CCC(F)(F)CC2)C(=O)N(C)CC(=O)N[C@@H](CCc2cc(F)c(C(F)(F)F)c(F)c2)C(=O)N2C[C@H](OCC)C[C@H]2C(=O)NC2(CC(C)(C)C2)C(=O)N(C)[C@@H](C2CCCC2)C(=O)N(C)[C@H](C(=O)N(C)C)CC(=O)N1C [PP2566]
Output: 17.6

Input: Find the measured IC50: item CCC[C@H]1C(=O)N[C@@H]([C@@H](C)CC)C(=O)N(C2CC2)CC(=O)N(C)[C@H]2C/C=C\CCN(C2=O)[C@@H](Cc2ccc(C)cc2)C(=O)N(C)CC(=O)N[C@@H](CCc2cc(F)c(C(F)(F)F)c(F)c2)C(=O)N2CC[C@H](OC)[C@H]2C(=O)N(C)C2(CCC2)C(=O)N(C)[C@@H](C2CCCC2)C(=O)N(C)[C@H](C(=O)N(C)C)CC(=O)N1C [PP3285] , target or system human lung cancer strain NCI-H441.
Output: 9.3

###

Target Or System: GDP-bound KRAS wild-type protein (Homo sapiens, UniProt P01116)
Sequence (P01116 1-188 isoform P01116-2): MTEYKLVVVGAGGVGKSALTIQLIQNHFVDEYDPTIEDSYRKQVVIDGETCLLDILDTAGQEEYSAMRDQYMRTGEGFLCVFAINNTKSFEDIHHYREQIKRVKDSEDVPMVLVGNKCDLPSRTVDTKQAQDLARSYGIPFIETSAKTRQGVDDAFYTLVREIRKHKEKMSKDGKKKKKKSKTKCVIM
Test Method Notes: Binding to KRAS by surface plasmon resonance (SPR), dissociation constant KD
Test Parameters: Single Cycle Kinetics, 1:1 binding model
Experimental: Surface plasmon resonance was used to analyze the binding affinity of compounds for KRAS, NRAS, and HRAS. […] The resulting sensorgram was subjected to curve fitting based on a 1:1 binding model on Biacore Insight Evaluation Software or T200 Evaluation Software, and thereby the dissociation constant KD of each compound with respect to KRAS, NRAS, and HRAS was determined. […]
Value Type: log10 Kd (log10 of the value in nM)
Values below are the log10 of the recorded Kd, with nM as the unit.

Input: For the molecule shown here, CCCOC[C@H]1C(=O)N[C@@H]([C@@H](C)CC)C(=O)N(C)CC(=O)N(C)[C@H]2C/C=C\CCN(C2=O)[C@@H](Cc2ccc(C)cc2)C(=O)N(C)CC(=O)N[C@@H](CCc2ccc(C(F)(F)F)c(OC)c2)C(=O)N2C[C@H](OCC)C[C@H]2C(=O)N(C)C2(CCC2)C(=O)N(C)[C@@H](C(CC)CC)C(=O)N(C)[C@H](C(=O)N(C)C)CC(=O)N1C [PP2323] , give the reported log10 Kd.
Output: -0.85

Input: Requested read-out: log10 Kd. Entry: CC[C@H](C)[C@@H]1NC(=O)[C@H](CC2CC2)N(C)C(=O)C[C@@H](C(=O)N(C)C)N(C)C(=O)[C@H](C2CCCC2)N(C)C(=O)C2(CCC2)NC(=O)[C@H](CCC(F)F)N(C)C(=O)[C@H](CCc2cc(F)c(C(F)(F)F)c(F)c2)NC(=O)CN(C)C(=O)[C@H](Cc2ccc(C(F)(F)F)cc2)N2CC/C=C\C[C@@H](C2=O)N(C)C(=O)CN(C)C1=O [PP1402]
Output: -0.52

Input: Request the reported log10 Kd associated with CC[C@H](C)[C@@H]1NC(=O)[C@@H](CC(C)C)N(C)C(=O)C[C@@H](C(=O)N2CCOCC2)N(C)C(=O)[C@H](C2CCCC2)N(C)C(=O)C2(CCCC2)NC(=O)[C@@H]2CCCN2C(=O)[C@H](CCc2cc(F)c(C(F)(F)F)c(F)c2)NC(=O)CN(C)C(=O)[C@H](Cc2ccc(C(F)(F)F)cc2)N2CCCC[C@@H](C2=O)N(C)C(=O)CN(C)C1=O [PP0591]
Output: 1.94

Input: Please look up its log10 Kd: CCC[C@H]1C(=O)N[C@@H]([C@@H](C)CC)C(=O)N(C)CC(=O)N(C)[C@H]2C/C=C\CCN(C2=O)[C@@H](Cc2ccc(C)cc2)C(=O)N(C)CC(=O)N[C@@H](CCc2ccc(C(F)(F)F)c(OC)c2)C(=O)N2C[C@@H](C)C[C@H]2C(=O)NC2(CCC2)C(=O)N(C)[C@@H](C2CCCC2)C(=O)N(C)[C@H](C(=O)N(C)CC)CC(=O)N1C [PP1840]
Output: -0.92

Input: State the recorded log10 Kd for this entry: CC[C@H](C)[C@@H]1NC(=O)[C@H](CC2CC2)N(C)C(=O)C[C@@H](C(=O)N(C)C)N(C)C(=O)[C@H](C2CCCC2)N(C)C(=O)C2(CCC2)N(C)C(=O)[C@@H]2C[C@@H](C)CN2C(=O)[C@H](CCc2cc(F)c(C(F)(F)F)c(F)c2)NC(=O)CN(C)C(=O)[C@H](Cc2ccc(C)cc2)N2CC/C=C\C[C@@H](C2=O)N(C)C(=O)[C@@H]2CCCN2C1=O [PP1801]
Output: -0.68

Input: What value of log10 Kd has been reported for the following molecule? CCO[C@@H]1C[C@H]2C(=O)NC3(CCC3)C(=O)N(C)[C@@H](C(CC)CC)C(=O)N(C)[C@H](C(=O)N(C)C)CC(=O)N(C)[C@@H](CC3CCCC3)C(=O)N[C@@H]([C@@H](C)CC)C(=O)N(C)CC(=O)N(C)[C@H]3C/C=C\CCN(C3=O)[C@@H](CC3CCC(F)(F)CC3)C(=O)N(C)CC(=O)N[C@@H](CCc3cc(F)c(C(F)(F)F)c(F)c3)C(=O)N2C1 [PP1431]
Output: -0.24
